Recorded values, source ChEMBL document CHEMBL1130048.

Recorded EC50 by entry
Target: UniProtKB Q01726
Sequence (Q01726 whole entry): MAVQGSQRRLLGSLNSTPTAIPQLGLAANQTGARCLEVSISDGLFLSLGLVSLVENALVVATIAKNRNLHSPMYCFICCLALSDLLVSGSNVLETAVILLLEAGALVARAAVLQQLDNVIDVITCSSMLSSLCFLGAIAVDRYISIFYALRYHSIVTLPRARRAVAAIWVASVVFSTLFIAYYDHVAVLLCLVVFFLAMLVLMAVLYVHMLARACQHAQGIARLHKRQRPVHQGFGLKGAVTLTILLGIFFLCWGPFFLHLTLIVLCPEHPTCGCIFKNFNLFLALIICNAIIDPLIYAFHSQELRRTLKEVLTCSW
Test: Effective concentration for intracellular cAMP accumulation in L-cells expressing Melanocortin 1 receptor
Give the number; nM is assumed, so skip it.

The following molecules have reported results that may help.
molecule=CC(=O)N[C@@H]1CC(=O)NCCCC[C@H](C(N)=O)NC(=O)[C@@H](C)NC(=O)[C@H](Cc2c[nH]c3ccccc23)NC(=O)[C@@H](CCCNC(=N)N)NC(=O)[C@H](Cc2ccccc2)NC(=O)[C@@H](Cc2cnc[nH]2)NC1=O systemname="UniProtKB Q01726" readoutname=EC50 endpointvalue=13.4
molecule="CCCC[C@H](NC(C)=O)C(=O)N[C@H]1CC(=O)NCCCC[C@@H](C(N)=O)NC(=O)[C@H](C)NC(=O)C(Cc2c[nH]c3ccccc23)NC(=O)[C@H](CCCN=C(N)N)NC(=O)C(Cc2ccccc2)NC(=O)[C@H](Cc2c[nH]cn2)NC1=O (single isomer, unassigned)" systemname="UniProtKB Q01726" readoutname=EC50 endpointvalue=2.61
molecule="CCCC[C@H](NC(C)=O)C(=O)N[C@H]1CC(=O)NCCCC[C@@H](C(N)=O)NC(=O)[C@H](C)NC(=O)C(Cc2c[nH]c3ccccc23)NC(=O)[C@H](CCCN=C(N)N)NC(=O)[C@@H](Cc2ccccc2)NC(=O)[C@H](Cc2c[nH]cn2)NC1=O (single isomer, unassigned)" systemname="UniProtKB Q01726" readoutname=EC50 endpointvalue=0.098
molecule=CCCC[C@H](NC(C)=O)C(=O)N[C@@H]1CC(=O)NCCCC[C@@H](C(N)=O)NC(=O)[C@H](C)NC(=O)[C@@H](Cc2c[nH]c3ccccc23)NC(=O)[C@H](CCCNC(=N)N)NC(=O)[C@H](Cc2ccccc2)NC(=O)[C@H](Cc2cnc[nH]2)NC1=O systemname="UniProtKB Q01726" readoutname=EC50 endpointvalue=34.2

Please turn your attention to the following entry.
Memo: CCCC[C@H](NC(C)=O)C(=O)N[C@H]1CC(=O)NCCCC[C@@H](C(N)=O)NC(=O)[C@H](C)NC(=O)C(Cc2c[nH]c3ccccc23)NC(=O)[C@H](CCCN=C(N)N)NC(=O)[C@H](Cc2ccccc2)NC(=O)[C@H](Cc2c[nH]cn2)NC1=O (single isomer, unassigned) , reported EC50: 0.3
